- method_summary: Plasma pharmacokinetics of ARRY-520
- Format: in vivo, human
- conditions_used: human, plasma, intravenous, 5.6 mg/m^2, CL, Schedule 1, Cycle 1 Day 1, 5.6 mg/m^2 (N=2); geometric mean
value_type: clearance
Write your answer as a measured quantity: the number, then the unit.

// clearance lookup, key: CON(C)C(=O)N1N=C(c2cc(F)ccc2F)S[C@@]1(CCCN)c1ccccc1 [ARRY-520] 71.7 mL/min

* * *

- method_summary: Plasma pharmacokinetics of ARRY-520
- Assay type: in vivo, human
- conditions_used: human, plasma, intravenous, 3.6 mg/m^2, AUC0–24, Schedule 2, Cycle 1 Day 1, 3.6 mg/m^2 (N=1); geometric mean
value_type: AUC(0-t) (ng·h/mL)
Expressed in ng·h/mL, but write only the number.

// AUC(0-t) lookup, key: CON(C)C(=O)N1N=C(c2cc(F)ccc2F)S[C@@]1(CCCN)c1ccccc1 345
